Target: Bile acid receptor (Homo sapiens)
Test: Agonist activity at human FXR expressed in human HeLa cells assessed as transactivation after 24 hrs by luciferase reporter gene assay
resultType: EC50 (µM)

a. O=C(O)c1cccc(NC(=O)c2ccccc2NC(=O)c2ccc3ccccc3c2)c1
b. O=C(O)Cc1ccc(NC(=O)c2ccccc2NC(=O)c2ccc3ccccc3c2)cc1
Q. Smaller EC50 value? Options are a and b Could you answer with the label of the item you picked?
A. a
(a: 1.5 µM, b: 3.1 µM)

A. CCc1ccc(C(=O)Nc2ccccc2C(=O)NCCCC(=O)O)cc1
B. CC(C)(C)c1ccc(C(=O)Nc2ccccc2C(=O)NCCCC(=O)O)cc1
C. O=C(O)CCCNC(=O)c1ccccc1NC(=O)/C=C/c1ccccc1
D. O=C(O)CCCCNC(=O)c1ccccc1NC(=O)c1ccc2ccccc2c1
Q. List by increasing EC50. Lab note: record answer as labels in requested order.
A. C, B, A, D

---

Molecular target: Bile acid receptor (Homo sapiens) (UniProt Q96RI1)
Sequence (whole entry): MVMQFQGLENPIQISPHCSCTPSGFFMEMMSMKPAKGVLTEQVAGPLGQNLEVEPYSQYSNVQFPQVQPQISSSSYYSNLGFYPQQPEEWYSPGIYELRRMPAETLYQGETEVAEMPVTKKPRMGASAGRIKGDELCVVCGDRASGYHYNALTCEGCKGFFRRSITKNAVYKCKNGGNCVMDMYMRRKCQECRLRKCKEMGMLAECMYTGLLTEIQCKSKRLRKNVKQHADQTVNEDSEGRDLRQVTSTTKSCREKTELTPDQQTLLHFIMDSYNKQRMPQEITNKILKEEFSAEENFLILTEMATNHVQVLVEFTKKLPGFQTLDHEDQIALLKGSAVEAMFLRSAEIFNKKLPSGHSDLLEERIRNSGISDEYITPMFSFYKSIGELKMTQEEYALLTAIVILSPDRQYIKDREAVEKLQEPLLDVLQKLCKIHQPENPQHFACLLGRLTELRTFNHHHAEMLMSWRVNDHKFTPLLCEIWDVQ
Test: Agonist activity at human FXR expressed in human HeLa cells assessed as transactivation after 24 hrs by luciferase reporter gene assay relative to GW4064
Assay type: cell-based
resultType: max activation (%)

CC(C)(C)c1ccc(C(=O)Nc2ccccc2C(=O)NCCCC(=O)O)cc1 = 19
O=C(O)c1cccc(NC(=O)c2ccccc2NC(=O)c2ccc3ccccc3c2)c1 = 37
O=C(O)Cc1ccc(NC(=O)c2ccccc2NC(=O)c2ccc3ccccc3c2)cc1 = 9.8

P. COC(=O)CCCNC(=O)c1ccccc1NC(=O)c1ccc2ccccc2c1
Q. O=C(O)CCCCCNC(=O)c1ccccc1NC(=O)c1ccc2ccccc2c1
Q. Which has the higher max activation, P or Q ? Could you answer with the label of the item you picked?
A. P
(P: 19%, Q: 10.4%)

---

Molecular target: Bile acid receptor (Homo sapiens, UniProt Q96RI1)
Experiment: Agonist activity at human FXR expressed in human HeLa cells assessed as transactivation after 24 hrs by luciferase reporter gene assay
pEC50: −log10 of the molar value.
resultType: pEC50

O=C(O)CCCNC(=O)c1ccccc1NC(=O)c1ccc2ccccc2c1 = 5.07
O=C(O)c1ccc(CNC(=O)c2ccccc2NC(=O)c2ccc3ccccc3c2)cc1 = 5.89

A. O=C(O)c1ccc(NC(=O)c2ccccc2NC(=O)c2ccc3ccccc3c2)cc1
B. COC(=O)CCCNC(=O)c1ccccc1NC(=O)c1ccc2ccccc2c1
C. O=C(O)CCCCCNC(=O)c1ccccc1NC(=O)c1ccc2ccccc2c1
Q. List by increasing pEC50. Lab note: record answer as labels in requested order.
A. B, C, A
(B: 5.15, C: 5.36, A: 6.00)
